# System: Strept. sanguis L1721
# Assay Protocol: MIC by microbroth dilution
# Type: cell-based, Streptococcus sanguis
# Applied Conditions: 0,01% BSA, 10^4 CFU/ml, 18-24 h, Todd Hewitt broth
Measured MIC of the compounds, listed per entry for reference.
Number only, in µg/mL; omit the unit.

- CCN(CC)CCN(CC)C(=O)C1COC(c2csc(-c3ccc4c(n3)-c3csc(n3)-c3csc(n3)C(C(O)c3ccccc3)NC(=O)CNC(=O)c3nc(sc3COC)C(C(C)C)NC(=O)c3nc(sc3C)C(CC(=O)NC)NC(=O)c3csc-4n3)n2)=N1 (mixture of isomers): 1

Here is another compound to look at.
Indicate the recorded MIC of the compounds value for this compound: CNC(=O)CC1NC(=O)c2csc(n2)-c2ccc(-c3nc(C4=NC(C(=O)N5CC(C)NC(C)C5)CO4)cs3)nc2-c2csc(n2)-c2csc(n2)C(C(O)c2ccccc2)NC(=O)CNC(=O)c2nc(sc2COC)C(C(C)C)NC(=O)c2nc1sc2C (mixture of isomers)
0.5
